All figures here come from patent US20070116839A1.

Rate of dissolution in H2O at 25° C. values for the compounds below.
Assay: Rate of dissolution in H2O at 25° C. of rebaudioside A polymorph and amorphous forms
Format: physicochemical

Illustrative cases are given below, each with its answer.
C=C1C[C@@]23CC[C@H]4[C@@](C)(CCC[C@@]4(C)C(=O)O[C@@H]4O[C@H](CO)[C@@H](O)[C@H](O)[C@H]4O)[C@@H]2CC[C@]1(O[C@@H]1O[C@H](CO)[C@@H](O)[C@H](O[C@@H]2O[C@H](CO)[C@@H](O)[C@H](O)[C@H]2O)[C@H]1O[C@@H]1O[C@H](CO)[C@@H](O)[C@H](O)[C@H]1O)C3 [Form 2, rebaudioside A] = < 30 %/5 minutes
C=C1C[C@@]23CC[C@H]4[C@@](C)(CCC[C@@]4(C)C(=O)O[C@@H]4O[C@H](CO)[C@@H](O)[C@H](O)[C@H]4O)[C@@H]2CC[C@]1(O[C@@H]1O[C@H](CO)[C@@H](O)[C@H](O[C@@H]2O[C@H](CO)[C@@H](O)[C@H](O)[C@H]2O)[C@H]1O[C@@H]1O[C@H](CO)[C@@H](O)[C@H](O)[C@H]1O)C3 [Form 4, rebaudioside A] = > 35 %/5 minutes

Query: Sample C=C1C[C@@]23CC[C@H]4[C@@](C)(CCC[C@@]4(C)C(=O)O[C@@H]4O[C@H](CO)[C@@H](O)[C@H](O)[C@H]4O)[C@@H]2CC[C@]1(O[C@@H]1O[C@H](CO)[C@@H](O)[C@H](O[C@@H]2O[C@H](CO)[C@@H](O)[C@H](O)[C@H]2O)[C@H]1O[C@@H]1O[C@H](CO)[C@@H](O)[C@H](O)[C@H]1O)C3 [Form 1, rebaudioside A] — what was its Rate of dissolution in H2O at 25° C.?
Reply: < 0.2 %/60 minutes

Query: Another compound: C=C1C[C@@]23CC[C@H]4[C@@](C)(CCC[C@@]4(C)C(=O)O[C@@H]4O[C@H](CO)[C@@H](O)[C@H](O)[C@H]4O)[C@@H]2CC[C@]1(O[C@@H]1O[C@H](CO)[C@@H](O)[C@H](O[C@@H]2O[C@H](CO)[C@@H](O)[C@H](O)[C@H]2O)[C@H]1O[C@@H]1O[C@H](CO)[C@@H](O)[C@H](O)[C@H]1O)C3 [Form 3, rebaudioside A]
Reply: > 30 %/5 minutes
